Kindly state fraction unbound at 6 h for each of the entries shown.
Assay: Plasma protein binding via rapid equilibrium dialysis (RED), 10% plasma
Format: in vitro ADME, human
Conditions: human, 10% pooled plasma (diluted 1:10), pH 7.4, RED, 10% plasma corrected for dilution, 6 h dialysis
Give bare numbers.

For each listed entry, give its fraction unbound at 6 h.
1. CC[C@H]1OC(=O)[C@H](C)[C@@H](O[C@H]2C[C@@](C)(OC)[C@@H](O)[C@H](C)O2)[C@H](C)[C@@H](O[C@@H]2O[C@H](C)C[C@H](N(C)C)[C@H]2O)[C@](C)(O)C[C@@H](C)CN(C)[C@H](C)[C@@H](O)[C@]1(C)O
2. CCN(CC)Cc1cc(Nc2ccnc3cc(Cl)ccc23)ccc1O
3. N#Cc1cc(NC(=O)[C@H]2c3ccccc3C(=O)N(CC(F)(F)F)[C@@H]2c2cccnc2)ccc1F

1. 0.34
2. 0.086
3. 0.1

###

Test: Bidirectional permeability across Caco-2 cell monolayers
Conditions: human, Caco-2
Kindly state Papp B→A for each of the entries shown.
One number for each entry, in ×10⁻⁶ cm/s.

Example compounds with recorded Papp B→A:
>>> value_reported("Cc1nc(Nc2ncc(N3CCN(C)[C@H](C)C3)c(Nc3cc(C)n(C)n3)n2)cc(C2CC2)c1F")
150
>>> value_reported("COc1ccc2nc3cc(Cl)ccc3c(Nc3cc(CN4CCCC4)c(O)c(CN4CCCC4)c3)c2n1")
41
>>> value_reported("CC(C)NC(=N)NC(=N)Nc1ccc(Cl)c(Cl)c1")
61
>>> value_reported("CC(C)(N)CNC(=O)C[C@H]1CC[C@]2(CC1)OO[C@]1(O2)C2CC3CC(C2)CC1C3")
70

Consider now this further compound.
Returns the measured Papp B→A for the input compound. Input: "CC1(C)c2nc(-c3ccc(F)cc3)c(Nc3ccc(F)cc3)n2CCN1C(=O)CN"
230

###

Test: Binding to human liver microsomes via ultracentrifugation
Type: in vitro ADME
Conditions: human, liver microsomes, pH 7.4, 0.4 mg/mL protein, read-out: Fraction unbound, HLM
Measurement kind: fraction unbound at […]
Answers are plain numbers.

For each listed entry, give its fraction unbound at […].
1. Clc1ccc2c(N3CCN(CCCN4CCN(c5ccnc6cc(Cl)ccc56)CC4)CC3)ccnc2c1
2. CC1(C)c2nc(-c3ccc(F)cc3)c(Nc3ccc(F)cc3)n2CCN1C(=O)CN
3. COc1ncnc(NS(=O)(=O)c2ccc(N)cc2)c1OC
4. CC(C)NC(=N)NC(=N)Nc1ccc(Cl)c(Cl)c1
5. CCc1nc(N)nc(N)c1-c1ccc(Cl)cc1
6. COc1ccc2nc3cc(Cl)ccc3c(Nc3cc(CN4CCCC4)c(O)c(CN4CCCC4)c3)c2n1

0.013
0.14
0.93
0.052
0.54
0.29

For each listed entry, give its fraction unbound at […].
1. [H]/N=C(\N/C(=N/[H])Nc1ccc(Cl)cc1)NC(C)C
2. Cc1nc(Nc2ncc(N3CCN(C)[C@H](C)C3)c(Nc3cc(C)n(C)n3)n2)cc(C2CC2)c1F
3. CC1(C)N=C(N)N=C(N)N1c1ccc(Cl)cc1

0.33
0.11
0.72

###

Kindly state microsomal CLint at 1 µM for each of the entries shown.
Assay: In vitro metabolism (metabolic stability) in human liver microsomes
Conditions: human, microsomes, pH 7.4, Mean CLint, control compounds; mean (S.D.)
Description: The metabolic stability assay was adapted from a previously published method. […] Reactions were quenched at 2, 5, 15, 30 and 60 min by the addition of acetonitrile containing 150 ng/mL diazepam as internal standard. […] Concentrations were determined by LC–MS (Additional file 1: Table S2) by comparison to the response for a single point calibration standard prepared in quenched microsomal matrix. […]
One number for each entry, in µL/min/mg.

>>> value_reported("COc1ccc2c(c1)[C@]13CCCC[C@@H]1[C@H](C2)N(C)CC3")
37.3

Consider now this further molecule.
Returns the measured microsomal CLint at 1 µM for the input molecule. Input: "Cc1ncc2n1-c1ccc(Cl)cc1C(c1ccccc1F)=NC2"
272

###

Tested on: Caco-2 cell monolayers
Experiment: Bidirectional permeability across Caco-2 cell monolayers
Conditions: matrix: pH 7.4 buffer
Measurement kind: A–B Papp

>>> value_reported("CO[C@H]1O[C@@H]2O[C@@]3(C)CC[C@H]4[C@H](C)CC[C@@H]([C@H]1C)[C@@]24OO3")
"46.3 10^−6 cm/s"
>>> value_reported("O=C(NCCN1CCCC1)c1cc(-c2ccc(CN3CCOCC3)cc2)nc2ccc(F)cc12")
"34 ± 2.6 10^−6 cm/s"
>>> value_reported("Cc1cc(Nc2ccc(S(F)(F)(F)(F)F)cc2)n2nc(C(C)(F)F)nc2n1")
"69.7 10^−6 cm/s"

Consider now this further compound.
Returns the measured A–B Papp for the input compound. Input: C[C@H]1[C@H](OC(=O)CCC(=O)O)O[C@@H]2O[C@@]3(C)CC[C@H]4[C@H](C)CC[C@@H]1[C@@]24OO3 [Artesunate]
2.9 10^−6 cm/s

###

Tested on: human plasma
Experiment: Plasma protein binding via rapid equilibrium dialysis (RED), 10% plasma
Type: in vitro ADME
Details: RED, 10% plasma corrected for dilution, 6 h dialysis
Measurement kind: Fraction unbound, human plasma

>>> value_reported("COc1cc(N[C@H](C)CCCN)c2nccc(C)c2c1Oc1ccc(Cl)c(Cl)c1 [NPC1161B]")
"< 0.0003"
>>> value_reported("CC(C)(C)NCc1cc(Nc2ccnc3cc(Cl)ccc23)c2c(c1O)CCCC2")
"0.019 (0.0010)"
>>> value_reported("CC[C@H]1OC(=O)[C@H](C)[C@@H](O[C@H]2C[C@@](C)(OC)[C@@H](O)[C@H](C)O2)[C@H](C)[C@@H](O[C@@H]2O[C@H](C)C[C@H](N(C)C)[C@H]2O)[C@](C)(O)C[C@@H](C)CN(C)[C@H](C)[C@@H](O)[C@]1(C)O")
0.35

Consider now this further molecule.
Returns the measured Fraction unbound, human plasma for the input molecule. Input: "Cc1cc(Nc2ccc(C(F)(F)F)nc2)n2nc(C(C)(F)F)nc2n1"
0.035 (0.0044)

###

Test system: human plasma
Test: Plasma protein binding via rapid equilibrium dialysis (RED), 10% plasma
Assay type: in vitro ADME
Settings: RED, 10% plasma corrected for dilution, 6 h dialysis
Marks after values point to notes of the source that are not given here.
Measurement kind: Fraction unbound, human plasma

For each listed entry, give its Fraction unbound, human plasma.
1. CC(C)(C)NCc1cc(C(C)(C)C)cc(-c2cnc(C(F)(F)F)c(F)c2)c1O
2. O=C(NCCN1CCCC1)c1cc(-c2ccc(CN3CCOCC3)cc2)nc2ccc(F)cc12

1: 0.0011 (0.0002); 2: 0.24 ± 0.0020^b

For each listed entry, give its Fraction unbound, human plasma.
1. CS(=O)(=O)O.FC1CCN(CCOc2ccc(C3CCC4(CC3)OOC3(OO4)C4CC5CC(C4)CC3C5)cc2)CC1 (stereo not shown)
2. COc1cc2[nH]c(C)c(-c3ccc(Oc4ccc(OC(F)(F)F)cc4)cc3)c(=O)c2cc1Cl

< 0.0001
< 0.0001

###

Test: Bidirectional permeability across Caco-2 cell monolayers
Conditions: human, Caco-2, pH 7.4, A–B Papp, matrix: pH 7.4 buffer
Measurement kind: Papp A→B (×10⁻⁶ cm/s)
Answers are plain numbers, in ×10⁻⁶ cm/s.

>>> value_reported("N#Cc1cc(NC(=O)[C@H]2c3ccccc3C(=O)N(CC(F)(F)F)[C@@H]2c2cccnc2)ccc1F [SJ733]")
14

For each listed entry, give its Papp A→B.
1. CS(=O)(=O)c1ccc(-c2cnc(N)c(-c3ccc(C(F)(F)F)nc3)c2)cc1 [MMV048]
2. Nc1ccc(S(=O)(=O)c2ccc(N)cc2)cc1 [Dapsone]

41
45

###

Target: UniProtKB P33261
Sequence (P33261 whole entry): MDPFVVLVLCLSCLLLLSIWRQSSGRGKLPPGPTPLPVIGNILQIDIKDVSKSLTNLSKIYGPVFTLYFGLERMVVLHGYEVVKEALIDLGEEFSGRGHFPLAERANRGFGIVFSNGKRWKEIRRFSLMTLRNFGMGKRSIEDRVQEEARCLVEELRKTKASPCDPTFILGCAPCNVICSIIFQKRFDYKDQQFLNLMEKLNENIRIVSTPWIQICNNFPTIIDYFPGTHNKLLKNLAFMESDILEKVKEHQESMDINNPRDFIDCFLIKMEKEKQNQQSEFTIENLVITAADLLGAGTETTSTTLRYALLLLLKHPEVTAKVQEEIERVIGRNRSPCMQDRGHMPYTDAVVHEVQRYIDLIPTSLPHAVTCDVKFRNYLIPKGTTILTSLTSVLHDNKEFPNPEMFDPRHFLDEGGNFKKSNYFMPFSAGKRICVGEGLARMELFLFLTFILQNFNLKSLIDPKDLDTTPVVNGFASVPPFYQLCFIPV
Experiment: in vitro
Settings: human, microsomes, pH 7.4
Respond with MET for inhibition at 20 µM values of 40% and above, NOT MET for values below.

>>> discrete_label("COc1cc(NC(C)CCCN)c2ncccc2c1 (stereo not shown)")
"NOT MET"
>>> discrete_label("COc1cc(C)c2c(Oc3cccc(C(F)(F)F)c3)c(OC)cc(NC(C)CCCN)c2n1 (stereo not shown)")
"MET"
>>> discrete_label("N#Cc1cc(NC(=O)[C@H]2c3ccccc3C(=O)N(CC(F)(F)F)[C@@H]2c2cccnc2)ccc1F")
"NOT MET"
>>> discrete_label("CC[C@H]1OC(=O)[C@H](C)[C@@H](O[C@H]2C[C@@](C)(OC)[C@@H](O)[C@H](C)O2)[C@H](C)[C@@H](O[C@@H]2O[C@H](C)C[C@H](N(C)C)[C@H]2O)[C@](C)(O)C[C@@H](C)CN(C)[C@H](C)[C@@H](O)[C@]1(C)O")
"NOT MET"

Then there is this compound:
Reported inhibition at 20 µM reaches at least 40% for "[H]/N=C(\N/C(=N/[H])Nc1ccc(Cl)cc1)NC(C)C" ?
NOT MET
